Assay Target: T1, Human CD33 full length, expressed on HEK293F cells (human, UniProt P20138 18-364)
T1 construct: HEK293F cells transduced with lentivirus containing full length human CD33; also called huCD33
T1 sequence (P20138 18-364 limits assumed): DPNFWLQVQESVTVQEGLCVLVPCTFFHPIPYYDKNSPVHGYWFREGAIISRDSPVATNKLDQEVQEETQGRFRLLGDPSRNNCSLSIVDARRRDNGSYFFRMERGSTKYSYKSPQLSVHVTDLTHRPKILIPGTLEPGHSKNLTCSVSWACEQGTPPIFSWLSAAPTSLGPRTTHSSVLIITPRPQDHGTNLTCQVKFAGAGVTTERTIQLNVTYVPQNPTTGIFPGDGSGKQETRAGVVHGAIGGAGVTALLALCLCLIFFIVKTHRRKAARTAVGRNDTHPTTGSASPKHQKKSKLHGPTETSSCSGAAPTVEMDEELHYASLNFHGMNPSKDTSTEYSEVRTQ
Protocol Text: flow cytometry, HEK293F cells expressing human CD33

Binder	MFI at 0.6 nM mAb, MFI
C33B72 (antibody, IgG1, V domains shown, huIgG1 F405L; also called C33F77; C33H65/C33L47) VH: QVQLVESGGGVVQPGRSLRLSCAASGFTFSSYGMHWVRQAPGKGLEWVVVISYDGSNKYYADSVKGRFTISRDNSKNTLYLQMNSLRAEDTAVYYCAKDFRDFDWLPPDSTSYHGMDVWGQGTTVTVSS VL: SYELTQPPSVSVSPGQTASITCSGDKLGDKYACWYQQKPGQSPVVVIYQDRKRPSGIPERFSGSNFGNTATLTISGTQAMDEADYYCQAWDSSTVVFGGGTKLTVL	12500
C33B122 (antibody, IgG1, V domains shown, huIgG1 F405L; also called C33F127; C33H92/C33L30) VH: QLQLQESGPGLVKPSETLSLTCTVSGGSIRSSSYYWGWIRQPPGKGPEWIGSIYSSGNTYYNPSLKSRVTISVDTSKNQFSLKLISMTAADTAVFYCARLAATIVVPAARYFDCWGQGTLVTVSS VL: SYELTQPPSVSVSPGQTVSISCSGDRLGDKYACWYQQKPGQSPVLVIYQDSKRPSGIPERFSGSNSGNTATLTISGTQAMDEADYYCQAWDSSSYVFGTGTKVTVL	14300
